# assayed_target: Protein phosphatase methylesterase 1 (Homo sapiens) (UniProt Q9Y570)
# Sequence (Q9Y570 whole entry, looked up): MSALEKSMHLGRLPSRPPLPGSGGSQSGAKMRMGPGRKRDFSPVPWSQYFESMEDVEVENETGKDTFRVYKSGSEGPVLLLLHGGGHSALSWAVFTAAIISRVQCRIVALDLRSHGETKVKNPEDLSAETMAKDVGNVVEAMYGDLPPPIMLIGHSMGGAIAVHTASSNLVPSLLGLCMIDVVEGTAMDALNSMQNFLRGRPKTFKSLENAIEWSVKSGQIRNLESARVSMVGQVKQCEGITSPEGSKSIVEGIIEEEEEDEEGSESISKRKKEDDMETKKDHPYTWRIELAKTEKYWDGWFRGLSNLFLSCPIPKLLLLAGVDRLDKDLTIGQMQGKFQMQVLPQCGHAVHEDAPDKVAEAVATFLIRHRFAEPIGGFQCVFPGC
# run_description: PME-1 inhibitors via competitive probe labeling, primary screen, biochemical, fluorescence polarization, FP-Rh probe, HTS (AID 2130);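 also: competitive labeling of PME-1 active site by serine hydrolase directed probe; 0% = PME-1 with DMSO and 100% = wells lacking PME-1 enzyme; inhibitors block probe labeling so polarization falls and inhibition rises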
# test_parameters: recombinant PME-1, FP-Rh probe fluorescence polarization; at 5.9 µM
In all, about 320,000 compounds went through this assay and about 1,700 (0.53%) were called active.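 The calls were made as follows: active = inhibition above the campaign mean of all compounds plus 3 SD (cut at about 26% in these data); inactive = the rest.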 The entries come from a sample that favours actives as a whole.
Hi there, use one of these labels in your reply, thanks! true (1) (active), false (0) (inactive)

Some solved cases for reference:
Oc1ccc(N=Cc2c(O)ccc3ccccc23)cc1 | true (1)
FC(F)(F)c1cccc(-c2nc(COc3ccc(Cl)cc3Cl)no2)c1 | false (0)
Cc1cccc(N(Cc2ccccc2)C(=O)c2cc(S(=O)(=O)N3CCOCC3)ccc2F)c1 | false (0)
CCc1ccc(C(=O)CSc2nnc(C)c(=O)[nH]2)cc1 | false (0)
CSCCC(NS(=O)(=O)/C=C/c1ccccc1)C(=O)N1CCC(C)CC1 (configuration not stated) | false (0)

Called result for CCOC(=O)C1Sc2[nH]c(=O)sc2C(c2ccc(Cl)cc2)C1C(=O)OCC (configuration not stated) false (0)

Name the outcome recorded for O=S(=O)(Nc1ccccc1Cl)c1cccc2nsnc12 in the assay. false (0)

In this assay, the call recorded for CCOC(=O)N1CCN(C(=O)COCc2cc(-c3ccc4c(c3)OCO4)on2)CC1 was what? false (0)

I'd appreciate the recorded outcome for O=S(=O)(c1cnccc1N1CCN(/N=C/c2ccc(Br)cc2)CC1)N1CCCCC1 from this test. false (0)

Give the logged outcome of this assay for the following compound: COc1cccc(N2CCN(CC(=O)Nc3ccnn3C3CCCC3)CC2)c1 false (0)

GET /call?item= Cc1cc(OC(=O)c2ccc(OC(C)C)cc2)c([N+](=O)[O-])c(=O)[nH]1 returns the recorded outcome of this test. false (0)

###

# assayed_target: Protein phosphatase methylesterase 1 (Homo sapiens) (UniProt Q9Y570)
# run_description: PME-1 inhibitors via competitive probe labeling, primary screen, biochemical, fluorescence polarization, FP-Rh probe, HTS (AID 2130);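 also: competitive labeling of PME-1 active site by serine hydrolase directed probe; 0% = PME-1 with DMSO and 100% = wells lacking PME-1 enzyme; inhibitors block probe labeling so polarization falls and inhibition rises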
# test_parameters: recombinant PME-1, FP-Rh probe fluorescence polarization; at 5.9 µM
Screen size: about 320,000 compounds; about 1,700 (0.53%) were called active.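 How the source made its calls: active means inhibition above the campaign mean of all compounds plus 3 SD (cut at about 26% in these data); inactive means the rest.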 Many of the other results were omitted from the sample, so actives are more common in it than they were.
Give one outcome, nothing more. List: label 1 (active), label 0 (inactive)

CCOC(=O)c1c(C)oc(C)c(C(=O)OCC)c1=O | label 0
COc1cc(/C=N\Nc2nc(-c3cccs3)c(NC(C)=O)s2)ccc1O | label 0

Which outcome was assigned to COc1ccnc(Oc2ccccc2)c1-c1ncn[nH]1 in this test? label 0

Identify the outcome logged in this assay for the compound shown: CC1CCC(NC(=O)CN(C)S(=O)(=O)c2ccc3c(c2)c(=O)n(C)c(=O)n3C)CC1 (configuration not stated) label 0

// outcome(item) with item = COc1cc(NS(=O)(=O)c2ccc(NC(=O)c3ccc([N+](=O)[O-])cc3)cc2)ncn1 label 0

What was the test verdict on COc1ccc(F)cc1C(=O)COC(=O)c1n[nH]c(=O)c2ccccc12 ? label 0

Outcome? CCCCN(CCCC)CCNC(=O)CN1C(=O)COc2ccc(S(=O)(=O)N3CCOCC3)cc21 label 0

Tell me the recorded outcome of this test for O=c1c2sccc2nc(SCc2cc(=O)n3ccccc3n2)n1-c1ccc(Br)cc1 . label 0

Hi, do you know how Cc1cc(C)c2nc3nc(C)cc(C)c3c(N)c2c1 came out in this test? label 0

Returns: the outcome recorded for CCc1nnc(NC(=O)c2cccc(S(=O)(=O)N(C)c3ccc(OC)cc3)c2)s1 in this assay. label 0

State the result this test recorded for CC(C)(C)C(=O)N(Cc1ccccc1)c1ccccn1 . label 0

Call for entry COC(=O)COc1ccc2c(c1C)O/C(=C\c1ccco1)C2=O : label 0
